# TEST_SYSTEM: Recombinant human KIF18A (1-467His-tagged) protein (Homo sapiens, UniProt Q8NI77)
# Construct: Recombinant human KIF18A (1-467His-tagged) protein; His
# Sequence (Q8NI77 1-467): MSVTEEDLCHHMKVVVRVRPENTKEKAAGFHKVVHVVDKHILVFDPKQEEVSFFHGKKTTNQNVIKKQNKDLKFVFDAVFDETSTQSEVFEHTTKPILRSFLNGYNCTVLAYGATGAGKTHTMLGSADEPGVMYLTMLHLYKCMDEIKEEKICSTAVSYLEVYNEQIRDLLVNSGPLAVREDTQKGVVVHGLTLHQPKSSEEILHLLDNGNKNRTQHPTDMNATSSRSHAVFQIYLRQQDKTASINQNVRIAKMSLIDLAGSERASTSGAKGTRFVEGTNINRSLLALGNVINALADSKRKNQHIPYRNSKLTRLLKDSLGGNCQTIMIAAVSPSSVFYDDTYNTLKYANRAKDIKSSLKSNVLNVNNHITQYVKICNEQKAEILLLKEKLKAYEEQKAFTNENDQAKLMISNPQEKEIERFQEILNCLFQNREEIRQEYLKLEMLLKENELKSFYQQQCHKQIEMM
# Sequence (P02550 whole entry partner): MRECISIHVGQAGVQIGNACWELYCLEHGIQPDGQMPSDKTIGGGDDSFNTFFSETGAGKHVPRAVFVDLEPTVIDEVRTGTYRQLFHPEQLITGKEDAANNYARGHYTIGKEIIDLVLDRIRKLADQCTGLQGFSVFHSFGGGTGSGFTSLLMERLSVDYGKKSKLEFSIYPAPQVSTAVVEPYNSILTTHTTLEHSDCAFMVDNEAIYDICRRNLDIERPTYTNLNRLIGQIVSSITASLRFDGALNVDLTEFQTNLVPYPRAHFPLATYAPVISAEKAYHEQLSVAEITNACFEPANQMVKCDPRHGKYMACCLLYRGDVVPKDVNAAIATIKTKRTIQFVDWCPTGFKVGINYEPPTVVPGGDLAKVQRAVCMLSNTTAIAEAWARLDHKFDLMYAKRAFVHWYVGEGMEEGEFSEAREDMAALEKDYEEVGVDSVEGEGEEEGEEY
# Sequence (P02554 whole entry partner): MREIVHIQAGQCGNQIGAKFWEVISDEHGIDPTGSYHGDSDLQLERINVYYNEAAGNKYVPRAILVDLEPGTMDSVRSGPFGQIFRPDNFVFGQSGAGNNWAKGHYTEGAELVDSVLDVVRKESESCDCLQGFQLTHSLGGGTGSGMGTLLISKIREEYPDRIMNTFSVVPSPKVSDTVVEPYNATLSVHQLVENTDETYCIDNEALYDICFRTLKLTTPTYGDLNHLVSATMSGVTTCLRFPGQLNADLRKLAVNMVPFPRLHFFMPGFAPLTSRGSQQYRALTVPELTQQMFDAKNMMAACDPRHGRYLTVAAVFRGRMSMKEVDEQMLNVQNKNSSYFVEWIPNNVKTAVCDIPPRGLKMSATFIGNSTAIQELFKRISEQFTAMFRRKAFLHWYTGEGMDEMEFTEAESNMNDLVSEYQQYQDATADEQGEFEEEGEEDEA
# PROTOCOL_NOTES: KIF18A enzyme assay (microtubule-stimulated ATPase activity, ADP-Glo)
# EXPERIMENTAL_PARAMETERS: 30 nM KIF18A, 75 μM ATP, 30 μg/mL pig microtubules; read-out: Inhibitory activity against KIF18A IC50
pIC50: −log10 of the molar value.
Form field: pIC50 (one value per entry).
VALUE_TYPE: pIC50

>  <SMILES_RECORD>
O=C(Nc1ccc([N+](=O)[O-])c(OCCC(F)(F)F)c1)c1ccc(NS(=O)(=O)CCO)cc1N1CCC2(CC1)CC2

>  <TEST_SYSTEM>
Recombinant human KIF18A (1-467His-tagged) protein (Homo sapiens, UniProt Q8NI77)

>  <REPORTED_MEASUREMENT>
≥ 7.00

$$$$
>  <SMILES_RECORD>
COc1ccc(NC(=O)c2ccc(NS(=O)(=O)CCO)cc2N2CCC3(CC2)CC3)nc1OCCC(F)(F)F

>  <TEST_SYSTEM>
Recombinant human KIF18A (1-467His-tagged) protein (Homo sapiens, UniProt Q8NI77)

>  <REPORTED_MEASUREMENT>
≥ 7.00

$$$$
>  <SMILES_RECORD>
O=C(Nc1ccc(NS(=O)(=O)CCO)cc1N1CCC2(CC1)CC2)c1ccc([N+](=O)[O-])c(N2CCC(F)CC2)c1

>  <TEST_SYSTEM>
Recombinant human KIF18A (1-467His-tagged) protein (Homo sapiens, UniProt Q8NI77)

>  <REPORTED_MEASUREMENT>
≥ 7.00

$$$$
>  <SMILES_RECORD>
O=C(Nc1ccc(OCF)c(N2CC(F)(F)C2)n1)c1ccc(S(=O)(=O)NCCO)cc1N1CCC2(CC1)CC2

>  <TEST_SYSTEM>
Recombinant human KIF18A (1-467His-tagged) protein (Homo sapiens, UniProt Q8NI77)

>  <REPORTED_MEASUREMENT>
≥ 7.00

$$$$
>  <SMILES_RECORD>
O=C(Nc1ccc(OCF)c(OC2CCC2)n1)c1cnc(NS(=O)(=O)CCO)cc1N1CCC2(CC1)CC2

>  <TEST_SYSTEM>
Recombinant human KIF18A (1-467His-tagged) protein (Homo sapiens, UniProt Q8NI77)

>  <REPORTED_MEASUREMENT>
≥ 7.00

$$$$
>  <SMILES_RECORD>
O=C(Nc1cnc(S(=O)(=O)NCCO)cc1N1CCC2(CC1)CC2)c1ccc([N+](=O)[O-])c(OCCC(F)(F)F)c1

>  <TEST_SYSTEM>
Recombinant human KIF18A (1-467His-tagged) protein (Homo sapiens, UniProt Q8NI77)

>  <REPORTED_MEASUREMENT>
6.30 to 7.00

$$$$
>  <SMILES_RECORD>
CC(C)(CO)Nc1cc(NC(=O)c2ccc(S(=O)(=O)NCCO)cc2N2CCC3(CC2)CC3)ccc1OCF

>  <TEST_SYSTEM>
Recombinant human KIF18A (1-467His-tagged) protein (Homo sapiens, UniProt Q8NI77)

>  <REPORTED_MEASUREMENT>
≥ 7.00

$$$$
>  <SMILES_RECORD>
COc1ccc(NC(=O)c2cnc(S(=O)(=O)NCCO)cc2N2CCC3(CC2)CC3)nc1N1CC(F)(F)C1

>  <TEST_SYSTEM>
Recombinant human KIF18A (1-467His-tagged) protein (Homo sapiens, UniProt Q8NI77)

>  <REPORTED_MEASUREMENT>
≥ 7.00

$$$$
>  <SMILES_RECORD>
O=C(Nc1ccc(OCF)c(N2CC(F)(F)C2)c1)c1cnc(NS(=O)(=O)CCO)cc1N1CCC2(CC1)CC2

>  <TEST_SYSTEM>
Recombinant human KIF18A (1-467His-tagged) protein (Homo sapiens, UniProt Q8NI77)

>  <REPORTED_MEASUREMENT>
≥ 7.00

$$$$
>  <SMILES_RECORD>
O=C(Nc1ccc(NS(=O)(=O)CCO)cc1N1CCC2(CC1)CC2)c1ccc(OCF)c(N2CC(F)(F)C2)n1

>  <TEST_SYSTEM>
Recombinant human KIF18A (1-467His-tagged) protein (Homo sapiens, UniProt Q8NI77)

>  <REPORTED_MEASUREMENT>
≥ 7.00

$$$$
>  <SMILES_RECORD>
O=C(Nc1cnc(NS(=O)(=O)CCO)cc1N1CCC2(CC1)CC2)c1ccc([N+](=O)[O-])c(N2CCOCC2)c1

>  <TEST_SYSTEM>
Recombinant human KIF18A (1-467His-tagged) protein (Homo sapiens, UniProt Q8NI77)

>  <REPORTED_MEASUREMENT>
≥ 7.00

$$$$
>  <SMILES_RECORD>
C[C@@H](CO)S(=O)(=O)Nc1cc(N2CCC3(CC2)CC3)c(NC(=O)c2ccc([N+](=O)[O-])c(N3CCC(F)(F)CC3)n2)cn1

>  <TEST_SYSTEM>
Recombinant human KIF18A (1-467His-tagged) protein (Homo sapiens, UniProt Q8NI77)

>  <REPORTED_MEASUREMENT>
≥ 7.00

$$$$
>  <SMILES_RECORD>
COc1ccc(C(=O)Nc2cnc(S(=O)(=O)NCCO)cc2N2CCC3(CC2)CC3)nc1NC(C)(C)CO

>  <TEST_SYSTEM>
Recombinant human KIF18A (1-467His-tagged) protein (Homo sapiens, UniProt Q8NI77)

>  <REPORTED_MEASUREMENT>
≥ 7.00

$$$$
>  <SMILES_RECORD>
CSc1ccc(NC(=O)c2cnc(NS(=O)(=O)[C@@H](C)CO)cc2N2CCC3(CC2)CC3)cc1N1CCC(F)(F)CC1

>  <TEST_SYSTEM>
Recombinant human KIF18A (1-467His-tagged) protein (Homo sapiens, UniProt Q8NI77)

>  <REPORTED_MEASUREMENT>
≥ 7.00

$$$$
